# System: SN12C
# protocol.text: NCI tumour cell line growth inhibition, 48 h
Active and inactive are the calls of the source. Rule as the data show it: active = GI50 up to about 1.1 µM and inactive = higher.
Pick from active, inactive when you respond.

Known results for compounds:
compound	discrete.label
COc1ccc(OC)c2sc(N3C(=O)/C(=C/c4ccc(Cl)cc4)N=C3c3ccccc3)nc12	inactive
CC#CCC1CCC(OCC)=CC1=O (stereo not given)	inactive
Cc1ccc(C(=O)CC2=Nc3nnc(CCCCCCCc4nnc5n4C(=O)C(CC(=O)c4ccc(C)cc4)=N5)n3C2=O)cc1	inactive
Oc1cc(-c2ccc(F)cc2)nc2ncccc12	inactive

Lookup: What outcome does the record of this test show for CC(=O)Nc1cc(/C=C\C(=O)N2CC(CCl)c3c2cc(N)c2ccccc32)n(C)n1 (stereo not given) ?
Found: active

----------
Each entry below lists one item and its recorded GI50 value.
# System: CCRF-CEM
# protocol.text: NCI tumour cell line growth inhibition, 48 h
Active and inactive are the calls of the source. No stated cut-off is given here; in the data, active = GI50 up to about 1.1 µM and inactive = higher.

Example entries and their recorded answers appear below.
molecule	test.target	GI50
COc1cc(OC)c(C#N)c(OC)c1C	CCRF-CEM	> 100 µM (inactive)
CC(=O)N(O)[C@@H]1CC[C@H](n2cnc3c(N)ncnc32)C1	CCRF-CEM	> 100 µM (inactive)
Brc1ccc2c3c1[C@@H]1O[C@@H]1c1cccc(c1-3)[C@@H]1O[C@H]21	CCRF-CEM	5.09 µM (inactive)
O=[N+]([O-])c1cccc(-c2oc(/C=N/c3ccccc3)c([N+](=O)[O-])c2-c2cccc([N+](=O)[O-])c2)c1	CCRF-CEM	> 100 µM (inactive)
O=C(Nc1cc(Cl)ccc1Cl)c1cc2cccc(Br)c2oc1=O	CCRF-CEM	> 100 µM (inactive)

Lookup: Short answer please: GI50, CCRF-CEM, entry "COc1ccc([C@H]2CC(=O)C[C@H](c3ccc(OC)cc3OC)C23C(=O)c2ccccc2C3=O)c(OC)c1"
Found: > 100 µM (inactive)

Lookup: Short answer please: GI50, CCRF-CEM, entry "COc1ccc(/C=C/C(=N\NC(=O)c2ccccc2)c2sc(Nc3ccc([N+](=O)[O-])cc3)nc2C)cc1OC"
Found: 2.34 µM (inactive)

Lookup: Short answer please: GI50, CCRF-CEM, entry CC(=O)O[C@@H]1C(C2CCCCC2)C=[N+]([O-])O[C@@H]1OC1CCCC1(c1ccccc1)c1ccccc1 (stereo not given in full)
Found: 2.63 µM (inactive)

Lookup: Short answer please: GI50, CCRF-CEM, entry O=C(Nc1ccccc1)C(=O)C(C(=O)c1ccccc1F)C1OC(=O)c2ccccc21 (stereo not given)
Found: 29.5 µM (inactive)

Lookup: Short answer please: GI50, CCRF-CEM, entry "O=C(Cn1c(=O)oc2ccc(C(=O)c3cccc(Cl)c3)cc21)c1ccccc1"
Found: > 100 µM (inactive)

----------
# System: SF-539
# protocol.text: NCI tumour cell line growth inhibition, 48 h
The source made the active and inactive calls. Rule as the data show it: active = GI50 up to about 1.1 µM and inactive = higher.
Pick from active, inactive when you respond.

Known results for compounds:
compound	discrete.label
CC(C)(C)n1c(=O)n(C(=O)C(Cl)(Cl)Cl)n(C(=O)C(Cl)(Cl)Cl)c1=O	inactive
CC(=O)O[C@@H]1C(C2CCCCC2)C=[N+]([O-])O[C@@H]1OC1CCCC1(c1ccccc1)c1ccccc1 (stereo not given in full)	inactive
NC1(c2cc3ccccc3s2)CCCC1	inactive
CN1N=C(c2ccncc2)OC1c1ccc(C(F)(F)F)cc1 (stereo not given)	inactive
C[P+](C)(C)c1ccccc1	inactive
N#CC1(C#N)C2=C(CCCC2)NC(c2ccc(Br)cc2)C1(C#N)C#N (stereo not given)	inactive
COc1ccc(N2C(=O)/C(=C/c3ccc(N(CCC#N)CCC#N)cc3)N=C2c2ccccc2)c(OC)c1	inactive
CC[C@@]1(O)C(=O)OCc2c1cc1n(c2=O)Cc2c-1nc1ccccc1c2/C=N\NC(=O)C(N)CS (stereo not given in full)	active
[O-][N+]1(CC[N+]2([O-])CCCCC2)CCCCC1	inactive

Then there is this compound:
Lookup: What outcome does the record of this test show for "Cc1ccc(S(=O)(=O)n2cc(-c3cc(C(F)(F)F)ccn3)c3cc(Br)ccc32)cc1" ?
Found: inactive

----------
# Test system: 786-0
# protocol.text: NCI tumour cell line growth inhibition, 48 h
The source made the active and inactive calls. Cut-off read from the data, not from the text of the source: active = GI50 up to about 1.1 µM and inactive = higher.
Pick from active, inactive when you respond.

molecule	discrete.label
Cc1ccc(/N=N/C(=N\c2ccc(Cl)cc2)c2ccc(N(CCC#N)CCC#N)cc2)cc1	inactive
O=C(Nc1cc(Cl)ccc1Cl)c1cc2cccc(Br)c2oc1=O	inactive
CC(=O)Nc1ccc(/C=C/C(=O)c2sc(-c3cccnc3)nc2C)cc1	inactive
N#Cc1nc(C(CO)N(Cc2ccccc2)C(=O)O)oc1N (stereo unspecified)	inactive
CC(=O)Nc1cc(/C=C\C(=O)N2CC(CCl)c3c2cc(N)c2ccccc32)n(C)n1 (stereo unspecified)	active
Cc1ccc(C(=O)CC2=Nc3nnc(CCCCCCCc4nnc5n4C(=O)C(CC(=O)c4ccc(C)cc4)=N5)n3C2=O)cc1	inactive
COc1cccc2c1-c1ccccc1[C@H](Nc1ccccc1)[C@@]2(C)O	inactive
CC1CCC2c3c([nH]c4ccccc34)C3C(=O)N(c4ccccc4)C(=O)C3C2C1 (stereo unspecified)	inactive

Lookup: What outcome does the record of this test show for "CCOC(=O)c1c(-c2ccccc2)c(-c2ccccc2)cn1C" ?
Found: inactive

Lookup: What outcome does the record of this test show for "CC(C)(C)c1ccc2c(c1)S(=O)(=O)Nc1cccc(c1)NS(=O)(=O)c1cc(C(C)(C)C)ccc1OCCOCCO2" ?
Found: inactive

Lookup: What outcome does the record of this test show for "CC1(n2nc(-c3ccccc3)n(-c3ccccc3)c2=O)CSC1" ?
Found: inactive

Lookup: What outcome does the record of this test show for COC(=O)c1ccc(C)cc1C1CN=NC12Cc1c(C)cccc1C2=O (stereo unspecified) ?
Found: inactive

Lookup: What outcome does the record of this test show for "O=C(/C=C/c1ccc(Cl)cc1)c1cccs1" ?
Found: inactive

----------
# Test system: HT-29
# protocol.text: NCI tumour cell line growth inhibition, 48 h
The source made the active and inactive calls. No stated cut-off is given here; in the data, active = GI50 up to about 1.1 µM and inactive = higher.
Each entry below lists one item and its recorded GI50 value.

molecule	GI50
O=c1[nH]cnc2c1ncn2[C@H]1CO[C@@H](CO)[C@@H]1O	> 100 µM (inactive)
COC(=O)CSC1CC(=O)c2c(Cl)sc(Cl)c21 (stereo not drawn)	> 100 µM (inactive)
CC(C)(C)NC(=O)[C@H]1CC[C@H]2[C@@H]3CC=C4NC(=O)CC[C@]4(C)[C@H]3CC[C@]12C	> 100 µM (inactive)
CC(=O)n1cc(CC(C)O)c(=O)[nH]c1=O (stereo not drawn)	> 100 µM (inactive)
COc1ccc(CNc2nc3cc(C(F)(F)F)ccc3nc2-c2ccccc2)cc1OC	21.1 µM (inactive)

Lookup: Sample "Cc1nc2ccc(NCCN(C)C)c3c(=O)c4ccccc4n1c23" — what was its GI50?
Found: 1.02 µM (active)

Lookup: Sample CCC1(O)CC(CCN(Cc2ccccc2)C(=O)OCc2ccccc2)C(OCc2ccccc2)C1O (stereo not drawn) — what was its GI50?
Found: 15.3 µM (inactive)

Lookup: Sample CC(=O)NC1C(OCc2ccccc2)OC(CO)C(O)C1OCC(=O)NC(C)C(=O)NC(CCC(=O)NCCCCCNc1c2ccccc2nc2cccc([N+](=O)[O-])c12)C(N)=O (stereo not drawn) — what was its GI50?
Found: < 0.0001 µM (active)

Lookup: Sample COC(COC(=O)N1CCN(C=O)CC1)C1=C(N2CC2)C(=O)C(C)=C(N2CC2)C1=O (stereo not drawn) — what was its GI50?
Found: 0.189 µM (active)

Lookup: Sample "CN(C)CCNC(=O)c1cccc(N(C)C(=O)c2ccccc2)c1[N+](=O)[O-]" — what was its GI50?
Found: > 100 µM (inactive)

Lookup: Sample [N-]=[N+]=NC1(c2ccccc2)C(=O)c2cccc3c2N(CCC3)C1=O (stereo not drawn) — what was its GI50?
Found: 47.4 µM (inactive)

----------
# Test system: SF-295
# protocol.text: NCI tumour cell line growth inhibition, 48 h
The source made the active and inactive calls. Cut-off read from the data, not from the text of the source: active = GI50 up to about 1.1 µM and inactive = higher.
Pick from 1 = active, -1 = inactive when you respond.

compound	discrete.label
Cn1c2ccccc2c(=O)c2ccc(Cl)cc21	-1

Lookup: What outcome does the record of this test show for "CC[C@@H](/C=C\CCC1(C[C@H](O)CCC=C(C)C)OCCO1)O[Si](C(C)C)(C(C)C)C(C)C" ?
Found: -1

Lookup: What outcome does the record of this test show for O=C(O)C1C2OC(C(Br)C2Br)C1C(=O)O (stereo not given) ?
Found: -1

Lookup: What outcome does the record of this test show for COc1ccc(N2C(=O)C3c4[nH]c5ccccc5c4C4CCC(C(C)(C)C)CC4C3C2=O)c(C)c1 (stereo not given) ?
Found: -1

Lookup: What outcome does the record of this test show for O=C1CCC2(CC1)Cc1ccccc1C2O (stereo not given) ?
Found: -1

Lookup: What outcome does the record of this test show for CC(=O)Nc1cc(/C=C\C(=O)N2CC(CCl)c3c2cc(N)c2ccccc32)n(C)n1 (stereo not given) ?
Found: 1
